Ref: patent US9957297B2

# measuredTarget: T1, Formyl-Peptide Receptor 1 (UniProt P21462 1-350, limits assumed)
# T1 sequence (looked up): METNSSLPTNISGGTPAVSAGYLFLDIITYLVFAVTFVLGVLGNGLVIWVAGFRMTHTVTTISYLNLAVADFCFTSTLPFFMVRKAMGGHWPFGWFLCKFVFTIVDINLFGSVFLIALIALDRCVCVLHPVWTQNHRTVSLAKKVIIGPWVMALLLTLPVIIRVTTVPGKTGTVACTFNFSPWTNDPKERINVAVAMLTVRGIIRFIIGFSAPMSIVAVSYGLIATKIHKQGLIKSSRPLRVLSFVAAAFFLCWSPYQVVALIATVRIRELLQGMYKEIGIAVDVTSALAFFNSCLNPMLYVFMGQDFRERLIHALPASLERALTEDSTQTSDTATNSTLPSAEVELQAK
# experimentalProtocol: cell-based or functional assay
Bridges are numbered along the chain shown (N, C = ends). [ ]: non-standard residue; d: D form.
valueType: β-Arrestin IC50 (nM)
Quick note: give the figure in nM, leave out the unit.

The cases that follow already have their β-Arrestin IC50 on record.
[[record]]
binder = "cyclo(YHACHG[dP]WTICYQE[dP]P) (disulfide 4-11; SMILES CC[C@H](C)[C@@H]1NC(=O)[C@H]([C@@H](C)O)NC(=O)[C@H](Cc2c[nH]c3ccccc23)NC(=O)[C@H]2CCCN2C(=O)CNC(=O)[C@H](Cc2c[nH]cn2)NC(=O)[C@@H]2CSSC[C@H](NC1=O)C(=O)N[C@@H](Cc1ccc(O)cc1)C(=O)N[C@@H](CCC(N)=O)C(=O)N[C@@H](CCC(=O)O)C(=O)N1CCC[C@@H]1C(=O)N1CCC[C@H]1C(=O)N[C@@H](Cc1ccc(O)cc1)C(=O)N[C@@H](Cc1c[nH]cn1)C(=O)N[C@@H](C)C(=O)N2) [cyclo(-Tyr-His-Ala-Cys-His-Gly-^DPro-Trp-Thr-Ile-Cys-Tyr-Gln-Glu-^DPro-Pro-)]"
observed = 132

[[record]]
binder = "cyclo(GHKCHG[dP]WTICYEK[dP]P) (disulfide 4-11; SMILES CC[C@H](C)[C@@H]1NC(=O)[C@H]([C@@H](C)O)NC(=O)[C@H](Cc2c[nH]c3ccccc23)NC(=O)[C@H]2CCCN2C(=O)CNC(=O)[C@H](Cc2c[nH]cn2)NC(=O)[C@@H]2CSSC[C@H](NC1=O)C(=O)N[C@@H](Cc1ccc(O)cc1)C(=O)N[C@@H](CCC(=O)O)C(=O)N[C@@H](CCCCN)C(=O)N1CCC[C@@H]1C(=O)N1CCC[C@H]1C(=O)NCC(=O)N[C@@H](Cc1c[nH]cn1)C(=O)N[C@@H](CCCCN)C(=O)N2) [cyclo(-Gly-His-Lys-Cys-His-Gly-^DPro-Trp-Thr-Ile-Cys-Tyr-Glu-Lys-^DPro-Pro-)]"
observed = 111

[[record]]
binder = "cyclo(YHACWG[dP]WTICYQE[dP]P) (disulfide 4-11; SMILES CC[C@H](C)[C@@H]1NC(=O)[C@H]([C@@H](C)O)NC(=O)[C@H](Cc2c[nH]c3ccccc23)NC(=O)[C@H]2CCCN2C(=O)CNC(=O)[C@H](Cc2c[nH]c3ccccc23)NC(=O)[C@@H]2CSSC[C@H](NC1=O)C(=O)N[C@@H](Cc1ccc(O)cc1)C(=O)N[C@@H](CCC(N)=O)C(=O)N[C@@H](CCC(=O)O)C(=O)N1CCC[C@@H]1C(=O)N1CCC[C@H]1C(=O)N[C@@H](Cc1ccc(O)cc1)C(=O)N[C@@H](Cc1c[nH]cn1)C(=O)N[C@@H](C)C(=O)N2) [cyclo(-Tyr-His-Ala-Cys-Trp-Gly-^DPro-Trp-Thr-Ile-Cys-Tyr-Gln-Glu-^DPro-Pro-)]"
observed = 63


API: the following record is the query input.
Value of measured β-Arrestin IC50 for the entry cyclo(YHKCHG[dA]WTICYEK[dP]P) (disulfide 4-11; SMILES CC[C@H](C)[C@@H]1NC(=O)[C@H]([C@@H](C)O)NC(=O)[C@H](Cc2c[nH]c3ccccc23)NC(=O)[C@@H](C)NC(=O)CNC(=O)[C@H](Cc2c[nH]cn2)NC(=O)[C@@H]2CSSC[C@H](NC1=O)C(=O)N[C@@H](Cc1ccc(O)cc1)C(=O)N[C@@H](CCC(=O)O)C(=O)N[C@@H](CCCCN)C(=O)N1CCC[C@@H]1C(=O)N1CCC[C@H]1C(=O)N[C@@H](Cc1ccc(O)cc1)C(=O)N[C@@H](Cc1c[nH]cn1)C(=O)N[C@@H](CCCCN)C(=O)N2) [cyclo(-Tyr-His-Lys-Cys-His-Gly-^DAla-Trp-Thr-Ile-Cys-Tyr-Glu-Lys-^DPro-Pro-)] : 77
